# ASSAY_TEXT: solvent given as SMILES
# CONDITION_INFO: in C1CCOC1

MOLECULE	emission maximum (nm)
F[B-]1(F)n2c(nc(-c3ccccc3)c2-c2ccccc2)-c2cccc[n+]21	537
CC(C)(C)c1ccc2c(c1)c1cc(C(C)(C)C)ccc1n2-c1nc2ccccc2nc1-n1c2ccc(C(C)(C)C)cc2c2cc(C(C)(C)C)ccc21	544.34
CCn1c2ccccc2c2cc(-c3cc(-c4ccc5c(c4)c4ccccc4n5CC)nc(-c4ccc(OC)cc4)n3)ccc21	385
CCOC(=O)/C(C#N)=C\c1ccc2c(c1)c1ccccc1n2-c1ccc(OC)cc1	460
CSc1cc(-c2cc3cc4c5c(c3oc2=O)CCCN5CCC4)oc(=O)c1C#N	580
CCn1c2ccccc2c2cc(-c3cc(-c4ccc5c(c4)c4ccccc4n5CC)nc(N4CCCCC4)n3)ccc21	408
Cc1ccc2nc3c(nc2c1)c(-c1ccccc1)nn3C	500
Cc1ccc(NC(=O)c2sc(Br)nc2C)cc1	407.5
COC(=O)c1ccc(/C=C/C(F)(F)F)c(N)c1	447
Cc1ccc(/C(C#N)=C/c2cc(/C=C(\C#N)c3ccc(C)cc3)c(-c3ccc(N(c4ccccc4)c4ccccc4)cc3)cc2-c2ccc(N(c3ccccc3)c3ccccc3)cc2)cc1	538
CCCCC(CC)Cn1c2ccc(C(=C(C#N)C#N)c3ccccc3)cc2c2c(-c3ccc(Br)cc3)c3c(c(-c4ccc(Br)cc4)c21)c1cc(C(=C(C#N)C#N)c2ccccc2)ccc1n3CC(CC)CCCC (stereo not drawn)	584
CC(C)(C)/C=C1\C=C(c2ccccc2)C=C1c1ccccc1	460
CCn1c2ccccc2c2cc(-c3cc(-c4ccc5c(c4)c4ccccc4n5CC)nc(C#N)n3)ccc21	427
CC(C)(C)c1ccc2c3c(c4ccc(C(C)(C)C)cc4c2c1)=[N+]1C(=C(c2ccccc2)c2c(Br)c4c5ccc(C(C)(C)C)cc5c5cc(C(C)(C)C)ccc5c4n2[B-]1(F)F)C=3Br	715
O=P(c1c2ccccc2cc2ccccc12)(c1c2ccccc2cc2ccccc12)c1c2ccccc2cc2ccccc12	452
c1ccc(-n2c(-c3c(-n4c5ccccc5c5ccccc54)cccc3-n3c4ccccc4c4ccccc43)nc3ccccc32)cc1	418
c1ccc(N(c2ccccc2)c2ccc(-c3cccc4nc5ccccc5cc34)cc2)cc1	535
CC(C)(C)c1cc2ccc3cc(C(C)(C)C)cc4c3c2c(c1)c(=O)n1c4nc2c3cc(C(C)(C)C)cc4ccc5cc(C(C)(C)C)cc(c5c43)c21	523
N#Cc1c(N2CCCCC2)cc(-c2cccc3ccccc23)c2c1-c1ccccc1C2=O	526
Cc1cc(C)c(B(c2ccc(-c3ccc(-c4nc5c6ccccc6c6ccccc6c5[nH]4)cc3)cc2)c2c(C)cc(C)cc2C)c(C)c1	474
CC(C)(C)c1ccc(C2=C(c3ccc(-n4c5ccc(C(C)(C)C)cc5c5cc(C(C)(C)C)ccc54)cc3)S(=O)(=O)c3c2sc(-c2ccc(-n4c5ccc(C(C)(C)C)cc5c5cc(C(C)(C)C)ccc54)cc2)c3-c2ccc(C(C)(C)C)cc2)cc1	555
CC1(C)CC(/C=C/c2ccc(-n3ccnc3)cc2)=CC(=C(C#N)C#N)C1	524
COC(=O)c1cc2c(cc3ccc4cccc5ccc2c3c45)[nH]1	404
CN1C(=O)c2cccc3c(-n4c5ccccc5c5ccccc54)ccc(c23)C1=O	537
COc1ccc(-c2cnc3nn4ccccc4c3n2)cc1	455
COc1cc(/C=C/c2ccccn2)c(OC)cc1C=O	446
COc1ccc2c(c1)c1c(c3cc(OC)ccc32)=[N+]2C(=C(c3c(C)cc(C)cc3C)c3cc4c5cc(OC)ccc5c5ccc(OC)cc5c4n3[B-]2(F)F)C=1	713
COc1cc2c(cc1-c1ccsc1)Cc1c3c(c4c(c1-2)-c1cc(OC)c(-c2ccsc2)cc1C4)C(=O)N(CCC(C)C)C3=O	487
COC(=O)C(Cc1ccc2oc(-c3ccc(N(c4ccccc4)c4ccccc4)cc3)nc2c1)NC(=O)OC(C)(C)C (stereo not drawn)	447.04
F[B-]1(F)n2c(c3cccc4cccc2c43)=Nc2cccc(Cl)[n+]21	503
N#Cc1ccc2[nH]ccc2c1	349
CC(=O)O[B-]1(OC(C)=O)OC(/C=C/C=C/c2ccccc2)=CC(/C=C/C=C/c2ccccc2)=[O+]1	531
O=S(=O)([O-])c1ccc(/C=C/c2ccc(-c3nnc(-c4ccc(/C=C/c5ccc(S(=O)(=O)[O-])cc5S(=O)(=O)[O-])cc4)o3)cc2)c(S(=O)(=O)[O-])c1	416

====

# ASSAY_TEXT: solvent given as SMILES
# CONDITION_INFO: in NC=O

COMPOUND	emission maximum / nm
COCCOCCOc1ccc(OCCOCCOC)c(C=O)c1	463
COC(=O)C(Cc1ccc2oc(-c3ccc(N(c4ccccc4)c4ccccc4)cc3)nc2c1)NC(=O)OC(C)(C)C (centres undefined)	491.5
COc1ccc(OC)c(C=O)c1	464
COCCOCCOc1cc(C=O)c(OCCOCCOC)cc1C=O	458

====

# reported emission maximum; entries follow
# ASSAY_TEXT: solvent given as SMILES
# CONDITION_INFO: in OCCO

COMPOUND	emission maximum
CCN(CC)c1ccc2ccc(=O)oc2c1	445 nm
COC(=O)C(Cc1ccc2oc(-c3ccc(-n4c5ccccc5c5ccccc54)cc3)nc2c1)NC(=O)OC(C)(C)C (centres undefined)	470.01 nm
O=S(=O)(O)c1cccc2cccc(Nc3ccccc3)c12	495 nm
O=C(O)C1=C/C(=C/C=[N+]2/c3cc(O)c(C[C@@H]4O[C@H](CO)[C@@H](O)C(O)[C@H]4O)cc3C[C@H]2C(=O)O)C[C@@H](C(=O)O)N1 (some centres undefined)	607 nm
Oc1ccccc1/N=C/c1ccccc1Oc1ccccc1	415 nm
CN(CCO)c1ccc(/N=N/c2ccc([N+](=O)[O-])cc2)cc1	583 nm
CN(C)c1ccc(/C=C/C=C/c2nc3ccccc3s2)cc1	583 nm
O=C(O)c1c2ccccc2nc2ccccc12	425 nm
Cc1nn(-c2ccccc2)c(C2=NN(c3ccc(Br)cc3)[C@@H](c3ccccc3)[C@@H]2c2ccccc2)c1C#N	500 nm

====

# reported emission maximum; entries follow
# ASSAY_TEXT: solvent given as SMILES
# CONDITION_INFO: in Cc1ccccc1
ASSAY_METRIC: emission maximum (nm)

STRUCTURE_SMILES	UNIT_NAME	REPORTED_MEASUREMENT
CSC1=C2C=C(c3cc4n(c3)[B-](F)(F)[N+]3=CC=CC3=C4c3c(C)cc(C)cc3C)C(C)=[N+]2[B-](F)(F)n2c(C)ccc21	nm	663
c1ccc(-c2nnc(-c3ccc(N4c5ccccc5N(c5ccccc5)c5ccccc54)cc3)o2)cc1	nm	577
Cn1c(=O)c(/N=N/c2cc(S(=O)(=O)O)ccc2S(=O)(=O)O)c(O)c2ccccc21	nm	490
CCN(CC)c1ccc2ccc(=O)oc2c1	nm	418
CCCN1/C(=C\c2c(-c3ccc(N(C)C)cc3)c(=O)c2=O)C=Cc2ccccc21	nm	435
COc1ccc(C2=[N+]3C(=Nc4c(-c5cc(OC)c(OC)c(OC)c5)c(Br)c(-c5ccc(OC)cc5)n4[B-]3(F)F)C(c3cc(OC)c(OC)c(OC)c3)=C2Br)cc1	nm	723
CCn1c2ccccc2c2cc(-c3cc(-c4ccc5c(c4)c4ccccc4n5CC)nc(-c4ccc(C#N)cc4)n3)ccc21	nm	388
CCn1c2ccccc2c2cc(-c3cc(-c4ccc5c(c4)c4ccccc4n5CC)nc(C#N)n3)ccc21	nm	404

====

# ASSAY_TEXT: solvent given as SMILES
# CONDITION_INFO: in ClCCl
# reported emission maximum; entries follow

COMPOUND	emission maximum / nm
COC(=O)C(Cc1ccc2oc(-c3ccc(N(c4ccccc4)c4ccccc4)cc3)nc2c1)NC(=O)OC(C)(C)C (centres undefined)	451.25
CCC1=C(C)C2=Cc3c4ccccc4c4n3[B-](c3ccncc3)(Oc3ccccc3-4)[N+]2=C1C (centres undefined)	639
Clc1ccc(/C=C/c2ccc(-c3nc4c5cccnc5c5ncccc5c4[nH]3)cc2)cc1	467
CCC1=C(C)C2=C(/C=C/Sc3ccccc3)c3c(C)c(CC)c(C)n3[B-](F)(F)[N+]2=C1C	580
CC1=NN(c2cccc3ccccc23)[B-](F)(F)[n+]2ccccc21	538
CC(C)(C)c1ccc2c(c1)-c1c3c(c4c5c1-c1cc(C(C)(C)C)ccc1OB5Oc1ccc(C(C)(C)C)cc1-4)-c1cc(C(C)(C)C)ccc1OB3O2	436
CC(C)(C)OC(=O)COc1ccc2c(c1)oc(=O)c1c(=O)oc3ccccc3c12	440
CCN(CC)c1ccc2c(-c3ccccc3C(=O)O)c3c([o+]c2c1)/C(=C/c1ccc2c(c1)c1ccccc1n2CC)CCC3	712
CC(=O)c1ccc(-c2cc3c(ccc4sccc43)s2)cc1	430

====

# ASSAY_TEXT: solvent given as SMILES
# CONDITION_INFO: in CCCCOCCCC
ASSAY_METRIC: emission maximum (nm)

STRUCTURE_SMILES	REPORTED_MEASUREMENT
c1ccc(Nc2nc(Nc3ccccc3)nc(Nc3cc4ccc5cccc6ccc(c3)c4c56)n2)cc1	397
COc1nc(Nc2cc3ccc4cccc5ccc(c2)c3c45)nc(OC)n1	393
c1ccc(N2c3ccccc3Sc3cc(-c4cccc5nc6ccccc6cc45)ccc32)cc1	533
